SUBJECT_OF_TEST: UniProtKB P9WQ01
PROTOCOL: biochemical
Assay type: binding
PROTOCOL_CONDITIONS: ITC Kd, six-site sequential binding model, 1st value, 25 °C, sequential binding, six-site model
QUANTITY_MEASURED: Kd

What the record says about N=C(N)NCCC[C@H](N)C(=O)O [L-arginine] : Kd is 4.5 µM

What the record says about NC(N)=NOCC[C@H](N)C(=O)O [L-canavanine, reference compound] : Kd is 4.5 µM

* * *

Task for the reader: assign each of the following molecules its reported SPR Binding Response.
SUBJECT_OF_TEST: ArgC (Mycobacterium tuberculosis)
PROTOCOL: Surface plasmon resonance with immobilised ArgC
Assay type: binding
PROTOCOL_CONDITIONS: fragments at 1 mM, adjusted for molecular weight

What the record says about Nc1ccc(Oc2ccccc2)nc1 : SPR Binding Response is 36.7 RU

What the record says about O=C(O)C1c2ccccc2Oc2ccccc21 : SPR Binding Response is 78.0 RU

What the record says about COc1ccc2oc(C(=O)O)nc2c1 : SPR Binding Response is 41.6 RU

What the record says about COc1ccc2[nH]cc(CC(=O)O)c2c1 : SPR Binding Response is 80.5 RU

* * *

SUBJECT_OF_TEST: ArgC (Mycobacterium tuberculosis, UniProt P9WPZ9)
Sequence (P9WPZ9 whole entry, the tested form may be a part): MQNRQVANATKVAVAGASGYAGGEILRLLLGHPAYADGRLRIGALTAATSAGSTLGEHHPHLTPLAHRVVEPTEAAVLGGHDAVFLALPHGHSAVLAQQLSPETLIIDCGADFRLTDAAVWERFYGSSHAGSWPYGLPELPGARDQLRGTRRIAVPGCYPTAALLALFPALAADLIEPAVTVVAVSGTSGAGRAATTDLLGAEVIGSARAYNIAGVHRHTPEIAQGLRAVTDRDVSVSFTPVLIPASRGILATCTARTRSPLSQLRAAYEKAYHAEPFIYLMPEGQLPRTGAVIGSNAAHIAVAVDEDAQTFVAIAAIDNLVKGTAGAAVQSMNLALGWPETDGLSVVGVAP
PROTOCOL: Differential scanning fluorimetry (DSF) fragment screening against ArgC
Assay type: binding
PROTOCOL_CONDITIONS: fragments at 5 mM, 2.5 μM ArgC
Task for the reader: assign each of the following compounds its reported ΔTm at 5000 µM.
Express it in °C; write the number only.

What the record says about COc1ccc2[nH]cc(CC(=O)O)c2c1 : ΔTm at 5000 µM is 3.1

What the record says about O=C(O)C1c2ccccc2Oc2ccccc21 : ΔTm at 5000 µM is 3.1

What the record says about COc1ccc2oc(C(=O)O)nc2c1 : ΔTm at 5000 µM is 5
